EXPERIMENT: Selectivity index, ratio of CC50 for human SNB19 cells to EC50 for Zika virus PRVABC-59
Format: toxicity
DETAILS: read-out: Ratio CC50/EC50
# cutoff 4 applies to selectivity ratio; >= gives Condition met, < gives Condition not met

Worked examples follow.
C=C1CC[C@H]2[C@@](C)(CCC(=O)[C@@]2(C)COC(C)=O)[C@@H]1C/C=C1/C(=O)OC[C@@H]1Oc1c(Cl)cc(Cl)c2cccnc12	Condition not met
C=C1CC[C@@H]2[C@](C)(CO)[C@H](O)CC[C@@]2(C)[C@@H]1C/C=C1/C(=O)OC[C@@H]1Oc1cccc2cccnc12	Condition met
C=C1CC[C@@H]2[C@](C)(CO)[C@H](O)CC[C@@]2(C)[C@@H]1C/C=C1/C(=O)OC[C@H]1Oc1ccnc2ccccc12	Condition met
C=C1CC[C@@H]2[C@]3(C)COC(C)(C)O[C@@H]3CC[C@@]2(C)[C@@H]1C/C=C1/C(=O)OC[C@@H]1Oc1cccc2cccnc12	Condition not met
C=C1CC[C@@H]2[C@](C)(CO)[C@H](O)CC[C@@]2(C)[C@@H]1C/C=C1/C(=O)OC[C@@H]1Oc1c(Cl)cc(Cl)c2cccnc12	Condition met
C=C1CC[C@@H]2[C@]3(C)COC(C)(C)O[C@@H]3CC[C@@]2(C)[C@@H]1C/C=C1/C(=O)OC[C@@H]1Oc1cccc2ccc(C)nc12	Condition met

# input for lookup
Input: Tell me whether selectivity ratio is at least 4 here: `C=C1CC[C@@H]2[C@](C)(CO)[C@H](O)CC[C@@]2(C)[C@@H]1C/C=C1/C(=O)OC[C@H]1Oc1c(Cl)cc(Cl)c2cccnc12`
Output: Condition met

###

Entries annotated with measured CC50
Tested on: SNB-19
EXPERIMENT: Cytotoxicity against human SNB19 cells assessed as reduction in cell viability incubated for 24 hrs by MTT assay
Format: cell-based
DETAILS: snb-19, 24 h
Unit µM implied. Number only.

Study these solved cases before continuing.
C=C1CC[C@@H]2[C@](C)(COC(C)=O)[C@H](O)CC[C@@]2(C)[C@@H]1C/C=C1/C(=O)OC[C@H]1Oc1c(Cl)cc(Cl)c2cccnc12	88.7
C=C1CC[C@@H]2[C@]3(C)COC(C)(C)O[C@@H]3CC[C@@]2(C)[C@@H]1C/C=C1/C(=O)OC[C@@H]1Oc1cccc2ccc(C)nc12	78.4
C=C1CC[C@@H]2[C@](C)(CO)[C@H](O)CC[C@@]2(C)[C@@H]1C/C=C1/C(=O)OC[C@H]1Oc1cccnc1[N+](=O)[O-]	67.7

Reported CC50 for `C=C1CC[C@@H]2[C@](C)(CO)[C@H](O)CC[C@@]2(C)[C@@H]1C/C=C1/C(=O)OC[C@H]1Oc1c(Cl)cc(Cl)c2cccnc12` was 85.2

###

EXPERIMENT: Cytotoxicity against African green monkey Vero cells assessed as reduction in cell viability incubated for 48 hrs by MTT assay
Type: cell-based
DETAILS: chlorocebus sabaeus, Vero cells
READOUT: CC50 at 48 h (µM)
The response must be a number in µM with no trailing unit.

Consider the worked cases shown below.
C=C1CC[C@@H]2[C@]3(C)COC(C)(C)O[C@@H]3CC[C@@]2(C)[C@@H]1C/C=C1/C(=O)OC[C@H]1Oc1c(Cl)cc(Cl)c2cccnc12	58.6
C=C1CC[C@@H]2[C@](C)(COC(C)=O)[C@H](O)CC[C@@]2(C)[C@@H]1C/C=C1/C(=O)OC[C@@H]1Oc1cccc2ccc(C)nc12	46.5
C=C1CC[C@@H]2[C@](C)(CO)[C@H](O)CC[C@@]2(C)[C@@H]1C/C=C1/C(=O)OC[C@H]1Oc1ccnc2ccccc12	22.8

Quick note, CC50 at 48 h for `C=C1CC[C@H]2[C@@](C)(CCC(=O)[C@@]2(C)COC(C)=O)[C@@H]1C/C=C1/C(=O)OC[C@H]1Oc1c(Cl)cc(Cl)c2cccnc12` landed at 64.7

Kindly note the recorded CC50 at 48 h for `C=C1CC[C@H]2[C@@](C)(CCC(=O)[C@@]2(C)COC(C)=O)[C@@H]1C/C=C1/C(=O)OC[C@@H]1Oc1cccc2cccnc12` , which is 12.8

Sure, the documented CC50 at 48 h for `C=C1CC[C@@H]2[C@](C)(CO)[C@H](O)CC[C@@]2(C)[C@@H]1C/C=C1/C(=O)OC[C@@H]1Oc1cccc2cccnc12` is 20.8

// CC50 at 48 h lookup, molecule = `C=C1CC[C@@H]2[C@](C)(CO)[C@H](O)CC[C@@]2(C)[C@@H]1C/C=C1/C(=O)OC[C@@H]1Oc1ccnc2ccccc12` , result: 20.7

For reference, reported CC50 at 48 h for `C=C1CC[C@@H]2[C@](C)(CO)[C@H](O)CC[C@@]2(C)[C@@H]1C/C=C1/C(=O)OC[C@H]1Oc1cccc2ccc(C)nc12` stands at 61.4

Input `C=C1CC[C@@H]2[C@]3(C)COC(C)(C)O[C@@H]3CC[C@@]2(C)[C@@H]1C/C=C1/C(=O)OC[C@H]1Oc1cccnc1[N+](=O)[O-]` . Output CC50 at 48 h: 26.2

Summary for this molecule, `C=C1CC[C@H]2[C@@](C)(CCC(=O)[C@@]2(C)COC(C)=O)[C@@H]1C/C=C1/C(=O)OC[C@H]1Oc1cccc2ccc(C)nc12` : CC50 at 48 h is 72.4

CC50 at 48 h in this record for `C=C1CC[C@@H]2[C@](C)(COC(C)=O)[C@H](O)CC[C@@]2(C)[C@@H]1C/C=C1/C(=O)OC[C@@H]1Oc1cccc2cccnc12` : 27.5
